Data origin: the supplement of paper PMC6555819

Test system: RXRa homodimer (NR concentration 180 nM)
Assay: PBM binding z-score (relative to random genomic background probes); higher = stronger binding; sequences stand for … in GC…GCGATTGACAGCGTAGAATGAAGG
Mark 0 (no) for PBM binding z-score values under 1, and 1 (yes) for everything at or above.

seq_text | tgt | class_assignment
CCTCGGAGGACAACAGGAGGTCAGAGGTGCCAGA | RXRa homodimer (NR concentration 180 nM) | 1 (yes)
CCTACTGGGCCATAGGTCATTGATTCCAATGCTC | RXRa homodimer (NR concentration 180 nM) | 1 (yes)
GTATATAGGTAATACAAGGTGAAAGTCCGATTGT | RXRa homodimer (NR concentration 180 nM) | 0 (no)
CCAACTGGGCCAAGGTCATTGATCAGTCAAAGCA | RXRa homodimer (NR concentration 180 nM) | 1 (yes)
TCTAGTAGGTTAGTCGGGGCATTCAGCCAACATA | RXRa homodimer (NR concentration 180 nM) | 0 (no)
CCTACTGGGCCATCAGGTCGTTGATATCAACGTT | RXRa homodimer (NR concentration 180 nM) | 0 (no)
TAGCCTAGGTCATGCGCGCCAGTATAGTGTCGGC | RXRa homodimer (NR concentration 180 nM) | 1 (yes)
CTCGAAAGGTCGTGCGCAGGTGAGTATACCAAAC | RXRa homodimer (NR concentration 180 nM) | 1 (yes)
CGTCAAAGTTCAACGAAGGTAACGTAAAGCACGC | RXRa homodimer (NR concentration 180 nM) | 1 (yes)
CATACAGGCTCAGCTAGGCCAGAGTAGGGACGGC | RXRa homodimer (NR concentration 180 nM) | 0 (no)
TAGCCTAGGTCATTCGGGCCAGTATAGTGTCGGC | RXRa homodimer (NR concentration 180 nM) | 1 (yes)
CCTAGCAGGCCAATCTGGGTCTCTCAAGGCTTGA | RXRa homodimer (NR concentration 180 nM) | 0 (no)
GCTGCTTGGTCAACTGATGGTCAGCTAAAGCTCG | RXRa homodimer (NR concentration 180 nM) | 0 (no)
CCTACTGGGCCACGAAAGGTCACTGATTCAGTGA | RXRa homodimer (NR concentration 180 nM) | 1 (yes)
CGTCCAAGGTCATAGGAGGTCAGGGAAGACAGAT | RXRa homodimer (NR concentration 180 nM) | 1 (yes)
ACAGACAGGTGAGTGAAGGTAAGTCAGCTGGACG | RXRa homodimer (NR concentration 180 nM) | 0 (no)
CCGACTCGGGCATAAGGTTACCATAAGCCAGCCC | RXRa homodimer (NR concentration 180 nM) | 0 (no)
TCATATAGGTAAATGCTAGCTGAAAGTCCGATCT | RXRa homodimer (NR concentration 180 nM) | 0 (no)
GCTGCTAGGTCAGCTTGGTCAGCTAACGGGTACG | RXRa homodimer (NR concentration 180 nM) | 1 (yes)
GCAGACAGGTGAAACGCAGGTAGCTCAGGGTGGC | RXRa homodimer (NR concentration 180 nM) | 0 (no)
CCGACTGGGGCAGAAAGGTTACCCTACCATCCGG | RXRa homodimer (NR concentration 180 nM) | 1 (yes)
GCTATTAGTTGAAAGGGCACCCGAATGATTCTCG | RXRa homodimer (NR concentration 180 nM) | 1 (yes)
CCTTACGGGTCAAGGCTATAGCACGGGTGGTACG | RXRa homodimer (NR concentration 180 nM) | 1 (yes)
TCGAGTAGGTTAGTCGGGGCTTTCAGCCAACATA | RXRa homodimer (NR concentration 180 nM) | 0 (no)
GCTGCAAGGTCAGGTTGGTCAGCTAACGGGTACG | RXRa homodimer (NR concentration 180 nM) | 1 (yes)
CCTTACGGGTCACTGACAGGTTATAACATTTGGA | RXRa homodimer (NR concentration 180 nM) | 1 (yes)

----------
sequences and their reported PBM binding z-score
System: PPARg homodimer (NR concentration 180 nM)
Test: PBM binding z-score (relative to random genomic background probes); higher = stronger binding; sequences stand for … in GC…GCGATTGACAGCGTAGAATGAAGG

seq_text | tgt | PBM binding z-score
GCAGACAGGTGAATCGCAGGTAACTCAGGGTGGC | PPARg homodimer (NR concentration 180 nM) | -0.727
CCTTACGGGTCACACCAGGTTATAGCATCGGAGT | PPARg homodimer (NR concentration 180 nM) | 2.63
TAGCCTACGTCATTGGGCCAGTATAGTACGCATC | PPARg homodimer (NR concentration 180 nM) | -0.852
ATCGAAAGGTCGACGATGTGAGTATACACCGTTT | PPARg homodimer (NR concentration 180 nM) | 1.43
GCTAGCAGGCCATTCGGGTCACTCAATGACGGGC | PPARg homodimer (NR concentration 180 nM) | 0.0772
GCTCGGAGGACAAGGTCATAGCTTTGTCCGTAGA | PPARg homodimer (NR concentration 180 nM) | 1.11

----------
Catalogue of PBM binding z-score readings, one per entry.
System: PPARg:RXRa 30nM:10nM, anti-RXR (NR concentration 30 nM, RXRa partner concentration 10 nM)
Assay: PBM binding z-score (relative to random genomic background probes); higher = stronger binding; sequences stand for … in GC…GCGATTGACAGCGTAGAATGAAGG

seq_text | tgt | PBM binding z-score
GTACCAAGGTCAATAGGTCGTTGATGAGTAGGCG | PPARg:RXRa 30nM:10nM, anti-RXR (NR concentration 30 nM, RXRa partner concentration 10 nM) | 2.14
CATCCAAGGTCATAGGAGGTCAGTGAAGACAGAT | PPARg:RXRa 30nM:10nM, anti-RXR (NR concentration 30 nM, RXRa partner concentration 10 nM) | 3.14
CAAACTAGGTAAAGGTCAAAGTCGGTTTGTGCCA | PPARg:RXRa 30nM:10nM, anti-RXR (NR concentration 30 nM, RXRa partner concentration 10 nM) | 6.03
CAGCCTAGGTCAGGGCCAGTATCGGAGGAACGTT | PPARg:RXRa 30nM:10nM, anti-RXR (NR concentration 30 nM, RXRa partner concentration 10 nM) | -0.713
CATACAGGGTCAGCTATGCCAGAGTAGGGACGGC | PPARg:RXRa 30nM:10nM, anti-RXR (NR concentration 30 nM, RXRa partner concentration 10 nM) | 0.968
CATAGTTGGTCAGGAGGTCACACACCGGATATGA | PPARg:RXRa 30nM:10nM, anti-RXR (NR concentration 30 nM, RXRa partner concentration 10 nM) | 1.73
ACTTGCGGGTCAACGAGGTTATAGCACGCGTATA | PPARg:RXRa 30nM:10nM, anti-RXR (NR concentration 30 nM, RXRa partner concentration 10 nM) | 2.04
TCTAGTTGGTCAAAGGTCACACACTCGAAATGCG | PPARg:RXRa 30nM:10nM, anti-RXR (NR concentration 30 nM, RXRa partner concentration 10 nM) | 10.4
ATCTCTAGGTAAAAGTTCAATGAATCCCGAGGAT | PPARg:RXRa 30nM:10nM, anti-RXR (NR concentration 30 nM, RXRa partner concentration 10 nM) | 8.81
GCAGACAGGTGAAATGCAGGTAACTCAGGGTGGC | PPARg:RXRa 30nM:10nM, anti-RXR (NR concentration 30 nM, RXRa partner concentration 10 nM) | -0.445
CCTACTGGGCCAAAAAGGTCATTAATGCCGATAA | PPARg:RXRa 30nM:10nM, anti-RXR (NR concentration 30 nM, RXRa partner concentration 10 nM) | 1.44
GTAGACAGGTGAAACGCAGGTAACTCAGGGTGGC | PPARg:RXRa 30nM:10nM, anti-RXR (NR concentration 30 nM, RXRa partner concentration 10 nM) | -0.305
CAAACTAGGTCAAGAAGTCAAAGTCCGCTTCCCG | PPARg:RXRa 30nM:10nM, anti-RXR (NR concentration 30 nM, RXRa partner concentration 10 nM) | 4.66
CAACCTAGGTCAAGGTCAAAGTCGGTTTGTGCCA | PPARg:RXRa 30nM:10nM, anti-RXR (NR concentration 30 nM, RXRa partner concentration 10 nM) | 2.75
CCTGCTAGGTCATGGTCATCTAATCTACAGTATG | PPARg:RXRa 30nM:10nM, anti-RXR (NR concentration 30 nM, RXRa partner concentration 10 nM) | 0.662
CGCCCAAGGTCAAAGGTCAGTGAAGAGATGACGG | PPARg:RXRa 30nM:10nM, anti-RXR (NR concentration 30 nM, RXRa partner concentration 10 nM) | 7.42
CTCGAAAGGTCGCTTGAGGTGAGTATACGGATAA | PPARg:RXRa 30nM:10nM, anti-RXR (NR concentration 30 nM, RXRa partner concentration 10 nM) | 0.841
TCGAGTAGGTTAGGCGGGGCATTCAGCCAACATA | PPARg:RXRa 30nM:10nM, anti-RXR (NR concentration 30 nM, RXRa partner concentration 10 nM) | 0.825
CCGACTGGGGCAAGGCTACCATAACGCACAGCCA | PPARg:RXRa 30nM:10nM, anti-RXR (NR concentration 30 nM, RXRa partner concentration 10 nM) | -0.201
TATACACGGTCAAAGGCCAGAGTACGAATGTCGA | PPARg:RXRa 30nM:10nM, anti-RXR (NR concentration 30 nM, RXRa partner concentration 10 nM) | 2.65
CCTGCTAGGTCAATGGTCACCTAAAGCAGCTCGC | PPARg:RXRa 30nM:10nM, anti-RXR (NR concentration 30 nM, RXRa partner concentration 10 nM) | 3.3
TCGAGTAGGTTACCAATGGGGCTTTCAGCTTTCT | PPARg:RXRa 30nM:10nM, anti-RXR (NR concentration 30 nM, RXRa partner concentration 10 nM) | 1.11
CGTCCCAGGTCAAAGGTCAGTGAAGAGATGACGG | PPARg:RXRa 30nM:10nM, anti-RXR (NR concentration 30 nM, RXRa partner concentration 10 nM) | 8.62
CAAACTAGGTCAAGGGCAAAGTCGGTTTGTGCCA | PPARg:RXRa 30nM:10nM, anti-RXR (NR concentration 30 nM, RXRa partner concentration 10 nM) | 6.95
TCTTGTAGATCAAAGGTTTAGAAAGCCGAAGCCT | PPARg:RXRa 30nM:10nM, anti-RXR (NR concentration 30 nM, RXRa partner concentration 10 nM) | 4.18
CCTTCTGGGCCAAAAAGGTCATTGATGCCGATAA | PPARg:RXRa 30nM:10nM, anti-RXR (NR concentration 30 nM, RXRa partner concentration 10 nM) | 1.16
